The reported measurements were obtained from PubChem BioAssay AID1159580.

Overview of reported normalized growth across a group of compounds:
# assay-remarks: chemical genetic growth profiling, strain panel (AID 1159580);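 note: tested at 20 µM; growth read once vehicle control cultures reached saturation at 30 °C; 1 = growth at the plate median or of vehicle wells; lower values mean less growth of the strain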
# measurement-context: S. cerevisiae deletion strains, growth OD, locus YBR023C, strain chs3, hits give low values
Out of some 5,500 compounds screened, about 2,000 (36%) were called active. Another 18% or so got no clear call; they are omitted. Some of the results follow.
Provide a numeric answer; units are not to be included.

Worked examples, 3 compounds total:
CC(C)CCCC(C)C1CCC2C3=CC[C@H]4C[C@@H](O)CC[C@]4(C)C3CC[C@@]21C (some centres undefined) : 0.961
CC(C)=CCCC(C)[C@@H]1CC[C@]2(C)C3=C(CC[C@@]12C)C1(C)CC[C@H](O)C(C)(C)C1CC3 (some centres undefined) : 1.08
CC(C)CCCC(C)[C@H]1CCC2C3CC=C4C[C@@H](O)CC[C@]4(C)C3CC[C@@]21C (some centres undefined) : 0.989

Next:
*Q* Could you tell me which normalized growth is on file for CC(=O)O[C@H]1CCC2(C)C3=C(CCC2C1(C)C)[C@@]1(C)CC[C@@H](C(C)CCC=C(C)C)[C@]1(C)CC3 (some centres undefined) ?
*A* 1.03

----------
# assay-remarks: chemical genetic growth profiling, strain panel (AID 1159580)
# measurement-context: S. cerevisiae deletion strains, growth OD, locus YPL241C, strain CIN2, hits give low values
Among all 5,500 compounds or so, about 2,000 (36%) were called active. Another 18% or so got no clear call; they are omitted. Some of the results follow.
metric-name: normalized growth
Provide a numeric answer; units are not to be included.

Worked examples, 5 compounds total:
CC(=O)O[C@@H]1CC2C(C)(C)C(=O)C=C[C@]2(C)C2CC[C@]3(C)C(=CC(=O)O[C@H]3c3ccoc3)[C@@]21C (stereo not given in full) : 0.981
Fc1cc(F)cc(COc2cc(Cl)cc(Cl)c2)c1 : 0.832
CC(C)CCCC(C)C1CCC2C3=CC[C@H]4C[C@@H](O)CC[C@]4(C)C3CC[C@@]21C (stereo not given in full) : 1.01
CC(=O)OC1CCC2(C)C(CC(OC(C)=O)C3(C)C4=CC(=O)OC(c5ccoc5)C4(C)CCC23)C1(C)C (stereo not given) : 0.987
CC(C)CCCC(C)[C@H]1CCC2C3CC=C4C[C@@H](O)CC[C@]4(C)C3CC[C@@]21C (stereo not given in full) : 1.01

*Q* Could you tell me which normalized growth is on file for O=C(O)C1C2CCC1C(O)C2 (stereo not given) ?
*A* 0.997

*Q* Could you tell me which normalized growth is on file for CC12CCC(=O)C=C1CCC1C2[C@@H](O)CC2(C)C1CC[C@]2(O)C(=O)COP(=O)(O)O (stereo not given in full) ?
*A* 1.01

*Q* Could you tell me which normalized growth is on file for `COC(OC)c1cc(=O)[nH]c(=S)[nH]1` ?
*A* 0.913

*Q* Could you tell me which normalized growth is on file for `O=S(=O)(Oc1ccc(OCc2ccccc2)cc1)c1cc(Cl)cc(Cl)c1` ?
*A* 1

*Q* Could you tell me which normalized growth is on file for NCC(O)(CS(=O)(=O)O)c1ccc(Cl)cc1 (stereo not given) ?
*A* 1

----------
# assay-remarks: chemical genetic growth profiling, strain panel (AID 1159580)
# measurement-context: S. cerevisiae deletion strains, growth OD, locus YKL085W, strain MDH1, hits give low values
Out of some 5,500 compounds screened, about 2,000 (36%) were called active. Not shown: some 18% with an inconclusive outcome. Some of the results follow.
metric-name: normalized growth
Provide a numeric answer; units are not to be included.

Worked examples, 4 compounds total:
Oc1cccc(O)c1 : 0.994
CCCSc1ccc2nc(NC(=O)OC)[nH]c2c1 : 0.986
C=C1c2c(Cl)ccc(O)c2C(O)=C2C(=O)[C@]3(O)C(O)=C(C(N)=O)C(=O)[C@@H](N(C)C)[C@@H]3[C@@H](O)[C@H]12 : 0.971
CN(C)[C@@H]1C(=O)C(C(N)=O)=C(O)[C@@]2(O)C(=O)C3=C(O)c4c(O)cccc4[C@@](C)(O)[C@H]3[C@H](O)[C@@H]12 : 0.999

Next:
*Q* Could you tell me which normalized growth is on file for `CCCOc1ccc2nc(NC(=O)OC)[nH]c2c1` ?
*A* 0.995

----------
# assay-remarks: chemical genetic growth profiling, strain panel (AID 1159580);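 note: tested at 20 µM; growth read once vehicle control cultures reached saturation at 30 °C; 1 = growth at the plate median or of vehicle wells; lower values mean less growth of the strain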
# measurement-context: S. cerevisiae deletion strains, growth OD, locus YOR106W, strain vam3, hits give low values
The campaign covered roughly 5,500 compounds. About 2,000 (36%) were called active. Another 18% or so got no clear call; they are omitted. This is one part of the list.
Overview of reported normalized growth across a group of compounds:
Provide a numeric answer; units are not to be included.

COC1CC2CCC(C)C(O)(O2)C(=O)C(=O)N2CCCCC2C(=O)OC(C(C)CC2CCC(O)C(OC)C2)CC(=O)C(C)/C=C(\C)C(O)C(OC)C(=O)C(C)CC(C)/C=C/C=C/C=C/1C (centres undefined) : 0.0579
CC(C)=CCc1c2c(c3occ(-c4ccc(O)c(O)c4)c(=O)c3c1O)C=CC(C)(C)O2 : 0.856

*Q* Could you tell me which normalized growth is on file for `CCOC(=O)NNc1nncc2ccccc12` ?
*A* 1.05

*Q* Could you tell me which normalized growth is on file for `Nc1ccc(S(=O)(=O)NC(=O)c2ccccc2)cc1` ?
*A* 0.999

*Q* Could you tell me which normalized growth is on file for `C[n+]1ccccc1/C=N/O` ?
*A* 0.995

----------
# assay-remarks: chemical genetic growth profiling, strain panel (AID 1159580);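 note: tested at 20 µM; growth read once vehicle control cultures reached saturation at 30 °C; 1 = growth at the plate median or of vehicle wells; lower values mean less growth of the strain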
# measurement-context: S. cerevisiae deletion strains, growth OD, locus YDR001C, strain nth1, hits give low values
Screen size: about 5,500 compounds; about 2,000 (36%) were called active. About 18% were inconclusive and are not listed. This is one part of the list.
metric-name: normalized growth
Provide a numeric answer; units are not to be included.

CC1=CC(=O)c2c(O)cccc2C1=O : 0.0551

*Q* Could you tell me which normalized growth is on file for `CC[N+](C)(C)c1cccc(O)c1` ?
*A* 1

*Q* Could you tell me which normalized growth is on file for CC12CCC(=O)C=C1CCC1C2[C@@H](O)CC2(C)C1CC[C@]2(O)C(=O)COP(=O)(O)O (stereo not given in full) ?
*A* 0.996

*Q* Could you tell me which normalized growth is on file for NC(Cn1ccc(=O)c(O)c1)C(=O)O (stereo not given) ?
*A* 1.02

*Q* Could you tell me which normalized growth is on file for `CN(C)[C@@H]1C(=O)C(C(N)=O)=C(O)[C@@]2(O)C(=O)C3=C(O)c4c(O)ccc(Cl)c4[C@@](C)(O)[C@H]3C[C@@H]12` ?
*A* 0.969

*Q* Could you tell me which normalized growth is on file for `CC(=O)Oc1ccc(C(c2ccc(OC(C)=O)cc2)c2ccccn2)cc1` ?
*A* 1.02

*Q* Could you tell me which normalized growth is on file for CC1(C)CC2C1CC[C@]1(CBr)CCC3C(CC(=O)O)C(=O)O[C@@]32C1 (stereo not given in full) ?
*A* 1.01

*Q* Could you tell me which normalized growth is on file for CCN1CCN(C(=O)NC(C(=O)N[C@@H]2C(=O)N3[C@@H]2SC(C)(C)[C@@H]3C(=O)O)c2ccccc2)C(=O)C1=O (stereo not given in full) ?
*A* 0.991

*Q* Could you tell me which normalized growth is on file for `COc1ccc([C@@H]2CC(=O)c3c(O)cc(O[C@@H]4O[C@H](CO[C@H]5O[C@@H](C)[C@H](O)[C@@H](O)[C@H]5O)[C@@H](O)[C@H](O)[C@H]4O)cc3O2)cc1O` ?
*A* 0.99

*Q* Could you tell me which normalized growth is on file for `CN(C)[C@@H]1C(=O)C(C(=O)NCN2CCCC2)=C(O)[C@@]2(O)C(=O)C3=C(O)c4c(O)cccc4[C@@](C)(O)[C@H]3C[C@@H]12` ?
*A* 1.01

*Q* Could you tell me which normalized growth is on file for `CC(=O)Oc1ccc(O)cc1` ?
*A* 0.987

*Q* Could you tell me which normalized growth is on file for `COc1cc(C/C=C/c2ccccc2)c(OC)cc1O` ?
*A* 0.966

*Q* Could you tell me which normalized growth is on file for CC(C)=CC1C(C(=O)O)C1(C)C (stereo not given) ?
*A* 0.962

----------
Overview of reported normalized growth across a group of compounds:
# assay-remarks: chemical genetic growth profiling, strain panel (AID 1159580);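 note: tested at 20 µM; growth read once vehicle control cultures reached saturation at 30 °C; 1 = growth at the plate median or of vehicle wells; lower values mean less growth of the strain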
# measurement-context: S. cerevisiae deletion strains, growth OD, locus YLR384C, strain iki3, hits give low values
The campaign covered roughly 5,500 compounds. About 2,000 (36%) were called active. Not shown: some 18% with an inconclusive outcome. Some of the results follow.
Provide a numeric answer; units are not to be included.

*Q* Could you tell me which normalized growth is on file for `CS(=O)(=O)Nc1ccc([N+](=O)[O-])cc1Oc1ccccc1` ?
*A* 0.991

*Q* Could you tell me which normalized growth is on file for `CN(C)[C@@H]1C(=O)C(C(N)=O)=C(O)[C@@]2(O)C(=O)C3=C(O)c4c(O)ccc(Cl)c4[C@@H](O)[C@H]3C[C@@H]12` ?
*A* 0.975

*Q* Could you tell me which normalized growth is on file for `C=C1c2cccc(O)c2C(O)=C2C(=O)[C@]3(O)C(O)=C(C(N)=O)C(=O)[C@@H](N(C)C)[C@@H]3[C@@H](O)[C@H]12` ?
*A* 1.03

*Q* Could you tell me which normalized growth is on file for `Nc1ccc(C(=O)O)cc1` ?
*A* 1.01

*Q* Could you tell me which normalized growth is on file for CC(C)CCCC(C)[C@H]1CCC2C3CC=C4CC(=O)CC[C@]4(C)C3CC[C@@]21C (stereo partly drawn) ?
*A* 0.995

*Q* Could you tell me which normalized growth is on file for `CC(=O)Oc1ccc(C(c2ccc(OC(C)=O)cc2)c2ccccn2)cc1` ?
*A* 1.02

*Q* Could you tell me which normalized growth is on file for `CN(C)[C@@H]1C(=O)C(C(N)=O)=C(O)[C@@]2(O)C(=O)C3=C(O)c4c(O)cccc4[C@@](C)(O)[C@H]3[C@H](O)[C@@H]12` ?
*A* 1.02

*Q* Could you tell me which normalized growth is on file for `C[C@H]1c2cccc(O)c2C(O)=C2C(=O)[C@]3(O)C(O)=C(C(N)=O)C(=O)[C@@H](N(C)C)[C@@H]3[C@@H](O)[C@@H]21` ?
*A* 1
